Test system: NB-4
Assay: Cytotoxicity against human NB4 cells after 48 hrs by MTT assay
Assay type: functional, cell-based
Conditions: NB-4, 48 h
In plain terms, low IC50, meaning strictly below 6 µM, gives label 1, and everything else gives label 0.

>  <Compound Smiles>
CC[C@H](C)[C@@H](CN1Cc2cc(OCC(=O)NO)ccc2C[C@H]1C(=O)Nc1ccc(OC)cc1)NC(=O)OC(C)(C)C

>  <Label Value>
label 1

$$$$
>  <Compound Smiles>
CC[C@H](C)[C@H](NC(=O)C1CCN(C(=O)OC(C)(C)C)CC1)C(=O)N1Cc2cc(OCC(=O)NO)ccc2C[C@H]1C(=O)Nc1ccc(OC)cc1

>  <Label Value>
label 0

$$$$
>  <Compound Smiles>
CC[C@H](C)[C@@H](CN1Cc2cc(OCC(=O)NO)ccc2C[C@H]1C(=O)Nc1ccc(OC)cc1)NC(=O)CC(C)(C)C

>  <Label Value>
label 1

$$$$
>  <Compound Smiles>
CC[C@H](C)[C@H](NC(=O)C1CCNCC1)C(=O)N1Cc2cc(OCC(=O)NO)ccc2C[C@H]1C(=O)Nc1ccc(OC)cc1.Cl

>  <Label Value>
label 0

$$$$
>  <Compound Smiles>
CC[C@H](C)[C@H](NC(=O)[C@@H]1CCCN1)C(=O)N1Cc2cc(OCC(=O)NO)ccc2C[C@H]1C(=O)Nc1ccc(OC)cc1.Cl

>  <Label Value>
label 0

$$$$
>  <Compound Smiles>
CC[C@H](C)[C@H](NC(=O)[C@@H](NC(=O)OC(C)(C)C)C(C)C)C(=O)N1Cc2cc(OCC(=O)NO)ccc2C[C@H]1C(=O)Nc1ccc(OC)cc1

>  <Label Value>
label 0

$$$$
>  <Compound Smiles>
CC[C@H](C)[C@H](NC(=O)[C@@H](N)C(C)C)C(=O)N1Cc2cc(OCC(=O)NO)ccc2C[C@H]1C(=O)Nc1ccc(OC)cc1.Cl

>  <Label Value>
label 0

$$$$
>  <Compound Smiles>
CC[C@H](C)[C@H](NC(=O)[C@@H]1CCCN1C(=O)OC(C)(C)C)C(=O)N1Cc2cc(OCC(=O)NO)ccc2C[C@H]1C(=O)Nc1ccc(OC)cc1

>  <Label Value>
label 1

$$$$
>  <Compound Smiles>
CC[C@H](C)[C@H](NC(=O)OC(C)(C)C)C(=O)N1Cc2cc(OCC(=O)NO)ccc2C[C@H]1C(=O)Nc1ccc(OC)cc1

>  <Label Value>
label 1

$$$$

* * *

Entries and their measured IC50 follow.
System: MDA-MB-231
Assay: Cytotoxicity against human MDA-MB-231 cells after 48 hrs by MTT assay
Format: functional, cell-based
Details: MDA-MB-231, 48 h

>  <Compound Smiles>
CC[C@H](C)[C@H](NC(=O)OC(C)(C)C)C(=O)N1Cc2cc(OCC(=O)NO)ccc2C[C@H]1C(=O)Nc1ccc(OC)cc1

>  <IC50 [nM]>
790

$$$$
>  <Compound Smiles>
COc1ccc(NC(=O)[C@@H]2Cc3ccc(OCC(=O)NO)cc3CN2C(=O)Cc2ccccc2)cc1

>  <IC50 [nM]>
4450

$$$$
>  <Compound Smiles>
COc1ccc(NC(=O)[C@@H]2Cc3ccc(OCC(=O)NO)cc3CN2C(=O)c2ccccc2)cc1

>  <IC50 [nM]>
3050

$$$$
>  <Compound Smiles>
COc1ccc(NC(=O)[C@@H]2Cc3ccc(OCC(=O)NO)cc3CN2C(=O)CCc2ccccc2)cc1

>  <IC50 [nM]>
1520

$$$$

Data provenance is ChEMBL document CHEMBL1795318.
